The reported numbers originate from a melting point compilation (Tetko et al.; mined from patent text by program, amines drawn as free bases though some values may be those of a salt).

MEASURE: melting point

MOLECULE: C=CC(CC(O)C(CC1CCCCC1)NC(=O)C(Cc1c[nH]cn1)NC(=O)C(CN)(Cc1ccccc1)Cc1ccccc1)C(C)C (stereo not given)
EXPERIMENTAL VALUE: 89 °C
--
MOLECULE: CSCc1cn(C)c2cc(F)ccc2c1=O
EXPERIMENTAL VALUE: 167 to 169 °C
--
MOLECULE: Cc1c(O)cc(N)cc1C(=O)O
EXPERIMENTAL VALUE: > 250 °C
--
MOLECULE: CC(=O)CC(C)c1ccc(-c2ccccc2F)cc1 (stereo not given)
EXPERIMENTAL VALUE: 60 to 61 °C
--
MOLECULE: COc1cc(C)c2ccc(N3C(=O)C4=C(SCCS4)C3OC(=O)N3CCN(C)CC3)nc2n1 (stereo not given)
EXPERIMENTAL VALUE: 232 to 234 °C

====

MOLECULE: CSc1c(C)cc(O)c(C(=O)Nc2ccc(S(=O)(=O)C(F)(F)F)cc2Cl)c1C
melting point: 201 to 202 °C
--
MOLECULE: O=C(COc1cc(-c2ccccc2)nc2ccc(Cl)cc12)N1CCOCC1
melting point: 182 °C
--
MOLECULE: CC(Oc1ccc(Oc2ccc(C(F)(F)F)cc2Cl)cc1)C(=O)N1CCCO1 (centres undefined)
melting point: 66.5 to 67.5 °C
--
MOLECULE: CCn1nc2c(N)nc3ccccc3c2c1CCCCN1C(=O)c2ccccc2C1=O
melting point: 216 to 217 °C
--
MOLECULE: Cc1ccc(S(=O)(=O)N2CCC(Sc3ccc(Cl)c(Cl)c3)CC2)cc1
melting point: 79 to 80 °C
--
MOLECULE: COc1ccc(CCNc2nc(Cl)nc(NCCc3ccc(OC)c(OC)c3)n2)cc1OC
melting point: 186 °C
--
MOLECULE: CC(=O)Oc1ccccc1Cn1nnnc1-c1cccc(Cl)c1Cl
melting point: 195 to 196 °C
--
MOLECULE: O=C(N[C@H]1CCN(C(=O)c2cc(C(F)(F)F)cc(C(F)(F)F)c2)[C@H](Cc2ccc(Cl)cc2)C1)c1cc(=O)c2ccccc2o1
melting point: 169 to 170 °C
--
MOLECULE: CCOC(=O)/C=C/c1cc(OCc2ccc(OCc3nc(-c4ccccc4)oc3C)c(OC)c2)nn1-c1ccccc1
melting point: 121 to 122 °C

====

Listing: melting point of selected compounds

COMPOUND: CC(C)c1cccc(C(C)C)c1NS(=O)(=O)CC(=O)NC(c1ccccc1)c1ccccc1
melting point: 166 to 167 °C
--
COMPOUND: CCCCCCCC[C@H](C)C(=O)Oc1ccc(C(=O)O)cc1
melting point: 92.5 to 96.5 °C
--
COMPOUND: O=C(N[C@H](Cc1ccc(C(F)(F)F)cc1)[C@@H](O)c1ccc(F)cc1)c1cccc2c1OCC2 (racemic)
melting point: 121 to 122 °C
--
COMPOUND: CC(=O)C=Cc1c(C)c(C)c(C)c2c1OC(C)(C)C2
melting point: 125 °C
--
COMPOUND: O=[N+]([O-])c1ccccc1Cc1ncc[nH]1
melting point: 155 to 157 °C
--
COMPOUND: O=C(Nc1ccc2[nH]c(=O)oc2c1)C(=O)N1CCC(Cc2ccc(C(F)(F)F)cc2)CC1
melting point: 217 °C
--
COMPOUND: O=C1c2sccc2-n2cnc(-c3noc(CCl)n3)c2[C@@H]2CCN12
melting point: 210 to 213 °C
--
COMPOUND: OCCN(CCO)c1cc(-c2ccccn2)nc(-c2ccccn2)c1
melting point: 171 to 172 °C
--
COMPOUND: CC1(C)OC(=S)Nc2ccc(-c3cccc(Br)c3)cc21
melting point: 191 to 193 °C
--
COMPOUND: CCN(CC)c1ccc(/C=C/c2cc(/C=C/c3ccc4cc[nH]c4c3)[nH]n2)cc1
melting point: 201 to 204 °C
--
COMPOUND: CC(C)(C)c1ccc(CC(=O)CCCl)cc1
melting point: 46 to 49 °C
--
COMPOUND: CC(=O)OC1CSC(Oc2cccc(-c3ccc(C#N)nc3)c2)C(OC(C)=O)C1OC(C)=O (stereo not given)
melting point: 130 °C
--
COMPOUND: COc1cc2c(Nc3ccc(Cl)cc3F)ncnc2cc1OCCCC(=O)N1CCOCC1
melting point: 216 to 217 °C
--
COMPOUND: CN(C)C(=O)Oc1ccc(Cl)c2c1C(=O)c1ccccc1C2=O
melting point: 182 to 184 °C
--
COMPOUND: COC(=O)c1nc(-c2ccc(Cl)cc2F)cc(N)c1Br
melting point: 148 to 149 °C
--
COMPOUND: Cc1nnnn1-c1ccccc1C(=O)O
melting point: 157 to 160 °C
--
COMPOUND: O=C(O)c1cn(C2CC2)c2c(CO)c(N3CCNCC3)c(F)cc2c1=O
melting point: 149 to 152 °C
--
COMPOUND: Cc1ccc(S(=O)(=O)N2CCCC2c2ccccc2Cl)cc1 (racemic)
melting point: 149 °C
--
COMPOUND: COP(=S)(OC)Oc1ncn(-c2ccccn2)n1
melting point: 88 to 91 °C
--
COMPOUND: CCCc1c(OCCCCCC(=O)c2ccc3cc(O)c(O)cc3c2)ccc(C(=O)O)c1O
melting point: 205 to 207 °C
